Target: T1, human ferroportin (SLC40A1) fused in frame with the GFP protein, stably expressed in HEK293 cells (human, UniProt Q9NP59 1-571)
T1 sequence (looked up): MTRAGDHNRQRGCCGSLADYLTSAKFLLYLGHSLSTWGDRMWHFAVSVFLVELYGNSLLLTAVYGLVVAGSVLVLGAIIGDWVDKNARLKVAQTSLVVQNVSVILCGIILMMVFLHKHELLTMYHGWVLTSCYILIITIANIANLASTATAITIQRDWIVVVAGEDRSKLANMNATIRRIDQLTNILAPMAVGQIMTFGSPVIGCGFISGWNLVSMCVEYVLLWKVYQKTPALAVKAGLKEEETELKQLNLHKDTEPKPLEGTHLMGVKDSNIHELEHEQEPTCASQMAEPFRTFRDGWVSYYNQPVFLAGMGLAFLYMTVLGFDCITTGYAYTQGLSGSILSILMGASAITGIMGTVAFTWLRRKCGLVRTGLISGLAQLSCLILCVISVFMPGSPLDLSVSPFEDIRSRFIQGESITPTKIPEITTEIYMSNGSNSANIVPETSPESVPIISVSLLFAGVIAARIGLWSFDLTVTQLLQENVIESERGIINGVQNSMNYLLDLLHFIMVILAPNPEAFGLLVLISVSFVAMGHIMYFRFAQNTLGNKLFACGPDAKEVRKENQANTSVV
Assay: cell-based or functional assay
Starred links: 1 amine or outer side, 2 acyl side, 3 side chain; linkers in the order of their positions; H or OH if unused. Non-standard residues stand in square brackets, D forms with d. Primed or numbered codes have the meaning given here. No end group written: not given here. *: point of attachment. Npc″ = L-nipecotic acid, O=C([C@H]1CCCN([*:1])C1)[*:2]; NMeF = CN[C@@H](Cc1ccccc1)C(=O)O; Isovaleryl = CC(C)CC(=O)*
measured.quantity: FPN IC50

Input: // lookup FPN IC50 for DTHFPCIKF (N-terminal isovaleric acid on each monomer; the two monomers linked through [D-Lys]-Lys[isoGlu-Palm]-NH2) [Compd ID 502]
Output: 33 nM

Input: Then what about the binder DTHFPCIIFK (N-terminal isovaleric acid on each monomer; D-Lys 10; the two monomers linked through IDA-[(b-Ala)-Palm]; -NH2) [Compd ID 509] ?
Output: 433 nM

Input: Then what about the binder DTHFPCIKF (N-terminal isovaleric acid on each monomer; D-Lys 8; the two monomers linked through Lys[isoGlu-Palm]-NH2) [Compd ID 503] ?
Output: 21 nM

Input: Then what about the binder Isovaleryl-DTHF[Npc″]CI[dK][NMeF] (not fully specified (C-terminus); also: dimer: two monomers linked through IDA-[(b-Ala)-Palm]-NH2) [Compd ID 518] ?
Output: 8 nM

Input: Then what about the binder DTHFPCIKF (N-terminal isovaleric acid on each monomer; the two monomers linked through K-Lys[isoGlu-Palm]-NH2) [Compd ID 501] ?
Output: 28 nM

Input: Then what about the binder DTHFPCIKX (N-terminal isovaleric acid on each monomer; NMe-Phe 9; the two monomers linked through IDA-[(b-Ala)-Palm]; -NH2) [Compd ID 507] ?
Output: 10 nM
